# assay: Solubility of compound at pH 7.4
# Type: physicochemical
# setup conditions: buffer
// reported solubility for each item listed
Reply numerically in µM, unit not repeated.

-- ask Kindly indicate its recorded solubility. Item: C=CC(=O)Nc1ccccc1Cn1c(-c2nc(-c3cnn(C4CCN(C)CC4)c3)cnc2N)nc2ccccc21
-- reply 35

Continuing:
-- ask Name the recorded solubility of the item C=CC(=O)Nc1cccc(-n2c(-c3nc(-c4cnn(C5CCN(C)CC5)c4)cnc3N)nc3ccncc32)c1 in your answer.
-- reply 540

-- ask For the compound C=CC(=O)Nc1cccc(-n2c(-c3nc(-c4cnn(C5CCN(C)CC5)c4)cnc3N)nc3cnccc32)c1 , give its reported solubility.
-- reply 300

-- ask Give a short answer stating reported solubility for C=CC(=O)Nc1cccc(-n2c(-c3nc(-c4cnn(C5CCN(C(=O)CN(C)C)CC5)c4)cnc3N)nc3ccccc32)c1 .
-- reply 18
